Data origin, for the record: patent US20040197268A1

Biological target: Aβ(1-40) (Homo sapiens)
Construct: Soluble Aβ(1-40) peptide (Bachem, Torrance, Calif.); purchased Bachem, Torrance, Calif
Assay: BASSR (Beta-Amyloid Self-Seeding Radioassay), inhibitors of self-seeded amyloid fibril growth
Assay type: biochemical
Settings: 30 μM soluble Aβ(1-40) + 125I-labeled Aβ(1-40), pH 7.5, 37° C., 3 to 5 hours, filtration
pIC50: −log10 of the molar value.
I'd appreciate it if you could supply pIC50 values for the items below.

Query block: For the compound `CCCCCCN(C)c1ccc(/C=C2\SC(=S)N(CCNC(=O)C(F)(F)F)C2=O)cc1` , report pIC50.
Result block: < 4.00

Query block: For the compound `CCCCCCN(C)c1ccc(/C=C2\SC(=S)N(CCNC(C)=O)C2=O)cc1` , report pIC50.
Result block: < 4.00

Query block: For the compound `O=C1/C(=C/c2ccc(N3CC[C@@H]4CCCC[C@H]4C3)cc2)SC(=S)N1Cc1nnn[nH]1` , report pIC50.
Result block: < 4.00

Query block: For the compound `CCCC1CCN(c2ccc(/C=C3\SC(=S)N(Cc4nnn[nH]4)C3=O)cc2)CC1` , report pIC50.
Result block: 4.82

Query block: For the compound `CCCCCCN(C)c1ccc(/C=C2\SC(=S)N(CS(=O)(=O)O)C2=O)cc1` , report pIC50.
Result block: < 4.00

Query block: For the compound `CCCC1CCN(c2ccc(/C=C3\SC(=S)N(Cc4cc(=O)c(O)co4)C3=O)cc2)CC1` , report pIC50.
Result block: < 4.00

Query block: For the compound `CCCCCCN(C)c1ccc(/C=C2\SC(=S)N(CCNS(=O)(=O)C(F)(F)F)C2=O)cc1` , report pIC50.
Result block: < 4.00

Query block: For the compound O=C1/C(=C/c2ccc(N3CCC4CCCCC4C3)cc2)SC(=S)N1Cc1cc(=O)c(O)co1 (stereo not shown) , report pIC50.
Result block: < 4.00

Query block: For the compound `CCCCCN(CCCCC)c1ccc(/C=C2\SC(=S)N(CC(=O)NS(=O)(=O)C(F)(F)F)C2=O)cc1` , report pIC50.
Result block: < 4.00

Query block: For the compound `CCCCCN(CCCCC)c1ccc(/C=C2\SC(=S)N(CCS(=O)(=O)NC(=O)c3ccc(F)cc3)C2=O)cc1` , report pIC50.
Result block: 5.05

Query block: For the compound `CCCCN(CCCC)c1ccc(/C=C2\SC(=S)N(CC(=O)NS(C)(=O)=O)C2=O)cc1` , report pIC50.
Result block: < 4.00

Query block: For the compound `CCCC1CCN(c2ccc(/C=C3\SC(=S)N(CC(=O)NS(C)(=O)=O)C3=O)cc2)CC1` , report pIC50.
Result block: 4.30

Query block: For the compound `CCCCCCN(C)c1ccc(/C=C2\SC(=S)N(CC(=O)NS(C)(=O)=O)C2=O)cc1` , report pIC50.
Result block: 5.05

Query block: For the compound `CCCCCCN(C)c1ccc(/C=C2\SC(=S)N(CCS(=O)(=O)NC)C2=O)cc1` , report pIC50.
Result block: < 4.00

Query block: For the compound O=C(NS(=O)(=O)CCN1C(=O)/C(=C/c2ccc(N3CCC4CCCCC4C3)cc2)SC1=S)c1ccccc1 (stereo not shown) , report pIC50.
Result block: 4.96

Query block: For the compound `CCCCCCN(C)c1ccc(/C=C2\SC(=S)N(CC(=O)NC)C2=O)cc1` , report pIC50.
Result block: < 4.00

----------
Target: Aβ(1-40) (Homo sapiens, UniProt P05067)
Construct: Soluble Aβ(1-40) peptide (Bachem, Torrance, Calif.); purchased Bachem, Torrance, Calif
Sequence (P05067 672-711 limits assumed): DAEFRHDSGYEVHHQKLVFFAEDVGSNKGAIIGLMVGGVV
Test: BASSR (Beta-Amyloid Self-Seeding Radioassay), inhibitors of self-seeded amyloid fibril growth
Format: biochemical
Details: 30 μM soluble Aβ(1-40) + 125I-labeled Aβ(1-40), pH 7.5, 37° C., 3 to 5 hours, filtration
I'd appreciate it if you could supply pIC50 values for the items below.
Keep it numeric: pIC50 is minus log10 of the concentration in mol/L.

Query block: For the compound `CCCCCN(CCCCC)c1ccc(/C=C2\SC(=S)N(CC(=O)NS(=O)(=O)c3ccccc3)C2=O)cc1` , report pIC50.
Result block: 5.52

Query block: For the compound `CCCCCCN(C)c1ccc(/C=C2\SC(=S)N(CC(=O)NS(=O)(=O)C(F)(F)F)C2=O)cc1` , report pIC50.
Result block: 6.00

Query block: For the compound `CCCCN(CCCC)c1ccc(/C=C2\SC(=S)N(CC(=O)NS(=O)(=O)C(F)(F)F)C2=O)cc1` , report pIC50.
Result block: 5.30

----------
Biological target: Aβ(1-42) (Homo sapiens)
Construct: Required Aβ(1-42)(California Peptide) was dried from its hexafluoroisopropanol (HFIP) stock solution
Sequence (P05067 672-713 limits assumed): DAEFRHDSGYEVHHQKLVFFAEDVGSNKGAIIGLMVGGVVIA
Experiment: BATYM Assay (Aβ(1-42) aggregation, Thioflavin T fluorescence)
Settings: Aβ 1-42 final concentration 100 μM, PBS pH 7.4, 37° C., 1 day, ThT fluorescence
I'd appreciate it if you could supply pIC50 values for the items below.
Keep it numeric: pIC50 is minus log10 of the concentration in mol/L.

Query block: For the molecule `CCCCCCN(C)c1ccc(/C=C2\SC(=S)N(CC(=O)NC)C2=O)cc1` , report pIC50.
Result block: 5.08

Query block: For the molecule `O=C(CN1C(=O)/C(=C/c2ccc(N3CC[C@@H]4CCCC[C@H]4C3)cc2)SC1=S)NS(=O)(=O)c1ccc(F)cc1` , report pIC50.
Result block: 5.60

Query block: For the molecule O=C1/C(=C/c2ccc(N3CCC4CCCCC4C3)cc2)SC(=S)N1Cc1cc(=O)c(O)co1 (stereo not shown) , report pIC50.
Result block: 5.59

Query block: For the molecule `O=C1/C(=C/c2ccc(N3CC[C@@H]4CCCC[C@H]4C3)cc2)SC(=S)N1Cc1nnn[nH]1` , report pIC50.
Result block: 5.48

Query block: For the molecule `CCCCN(CCCC)c1ccc(/C=C2\SC(=S)N(CCS(=O)(=O)NC(=O)c3ccc(F)cc3)C2=O)cc1` , report pIC50.
Result block: 5.67

Query block: For the molecule `CCCCCCN(C)c1ccc(/C=C2\SC(=S)N(CCNS(C)(=O)=O)C2=O)cc1` , report pIC50.
Result block: 5.60

Query block: For the molecule `O=C(CN1C(=O)/C(=C/c2ccc(N3CC[C@@H]4CCCC[C@H]4C3)cc2)SC1=S)NS(=O)(=O)c1ccccc1` , report pIC50.
Result block: 5.42

----------
Biological target: Aβ(1-40) (Homo sapiens)
Construct: Soluble Aβ(1-40) peptide (Bachem, Torrance, Calif.); purchased Bachem, Torrance, Calif
Test: BASST (Beta-Amyloid Self-Seeding, ThioflavinT), inhibitors of self-seeded amyloid fibril growth
Type: biochemical
Details: 30 μM soluble Aβ(1-40), pH 7.5, 37° C., 3 to 5 hours, thioflavin T fluorescence
pIC50: −log10 of the molar value.
Decision: pIC50 compared against 6; not below it gives yes, below it gives no.

Query block: Evaluate `CCCCCN(CCCCC)c1ccc(/C=C2\SC(=S)N(CC(=O)NS(C)(=O)=O)C2=O)cc1` : pIC50 at minimum 6?
Result block: no

Query block: Evaluate `CCCC1CCN(c2ccc(/C=C3\SC(=S)N(Cc4nnn[nH]4)C3=O)cc2)CC1` : pIC50 at minimum 6?
Result block: yes

Query block: Evaluate `CCCCCCN(C)c1ccc(/C=C2\SC(=S)N(CCNC(C)=O)C2=O)cc1` : pIC50 at minimum 6?
Result block: yes

Query block: Evaluate O=C(NS(=O)(=O)CCN1C(=O)/C(=C/c2ccc(N3CCC4CCCCC4C3)cc2)SC1=S)c1ccc(F)cc1 (stereo not shown) : pIC50 at minimum 6?
Result block: yes

Query block: Evaluate `CCCC1CCN(c2ccc(/C=C3\SC(=S)N(Cc4cc(=O)c(O)co4)C3=O)cc2)CC1` : pIC50 at minimum 6?
Result block: no

Query block: Evaluate `CCCCCCN(C)c1ccc(/C=C2\SC(=S)N(Cc3nnn[nH]3)C2=O)cc1` : pIC50 at minimum 6?
Result block: no

Query block: Evaluate `CCCCCN(CCCCC)c1ccc(/C=C2\SC(=S)N(CCS(=O)(=O)NC(=O)c3ccc(F)cc3)C2=O)cc1` : pIC50 at minimum 6?
Result block: yes

Query block: Evaluate `CCCC1CCN(c2ccc(/C=C3\SC(=S)N(CC(=O)NS(C)(=O)=O)C3=O)cc2)CC1` : pIC50 at minimum 6?
Result block: yes

Query block: Evaluate `CCCCCCN(C)c1ccc(/C=C2\SC(=S)N(CCS(=O)(=O)NC(=O)C(F)(F)F)C2=O)cc1` : pIC50 at minimum 6?
Result block: yes

Query block: Evaluate `CCCCN(CCCC)c1ccc(/C=C2\SC(=S)N(Cc3nnn[nH]3)C2=O)cc1` : pIC50 at minimum 6?
Result block: no

Query block: Evaluate `CCCCCN(CCCCC)c1ccc(/C=C2\SC(=S)N(CC(=O)NS(=O)(=O)c3ccc(F)cc3)C2=O)cc1` : pIC50 at minimum 6?
Result block: no

Query block: Evaluate `CCCCCCN(C)c1ccc(/C=C2\SC(=S)N(CCNS(=O)(=O)c3ccccc3)C2=O)cc1` : pIC50 at minimum 6?
Result block: no

Query block: Evaluate `CCCCN(CCCC)c1ccc(/C=C2\SC(=S)N(CC(=O)NS(=O)(=O)C(F)(F)F)C2=O)cc1` : pIC50 at minimum 6?
Result block: yes

Query block: Evaluate `CCCCN(CCCC)c1ccc(/C=C2\SC(=S)N(Cc3cc(=O)c(O)co3)C2=O)cc1` : pIC50 at minimum 6?
Result block: no

Query block: Evaluate O=C(NS(=O)(=O)CCN1C(=O)/C(=C/c2ccc(N3CCC4CCCCC4C3)cc2)SC1=S)c1ccccc1 (stereo not shown) : pIC50 at minimum 6?
Result block: yes

Query block: Evaluate `CCCCCCN(C)c1ccc(/C=C2\SC(=S)N(CC(=O)NS(=O)(=O)C(F)(F)F)C2=O)cc1` : pIC50 at minimum 6?
Result block: yes

Query block: Evaluate `CCCCCCN(C)c1ccc(/C=C2\SC(=S)N(CS(=O)(=O)O)C2=O)cc1` : pIC50 at minimum 6?
Result block: no

Query block: Evaluate `CCCCCCN(C)c1ccc(/C=C2\SC(=S)N(CC(=O)NC)C2=O)cc1` : pIC50 at minimum 6?
Result block: no

Query block: Evaluate `CCCCCCN(C)c1ccc(/C=C2\SC(=S)N(CC(=O)NS(=O)(=O)c3ccccc3)C2=O)cc1` : pIC50 at minimum 6?
Result block: no

Query block: Evaluate `CCCCCCN(C)c1ccc(/C=C2\SC(=S)N(CCNC(=O)C(F)(F)F)C2=O)cc1` : pIC50 at minimum 6?
Result block: no

Query block: Evaluate `CCCCN(CCCC)c1ccc(/C=C2\SC(=S)N(CCS(=O)(=O)NC(=O)c3ccccc3)C2=O)cc1` : pIC50 at minimum 6?
Result block: yes
